Where do these numbers come from? They come from the supplement of paper PMC4858399.

Entries and their mean nematode size ln(EXT) (ln) values follow.
System: Caenorhabditis elegans N2
Test Summary: mean nematode size ln(EXT) after 48 h, plate-adjusted (DMSO control set to 6) (ln(EXT), control-adjusted); higher = larger nematodes / less growth inhibition
Test Parameters: 50 µM; exposure time 48 h
Counter-ions that a name gives are not always drawn.
Metric Name: mean nematode size ln(EXT) (ln)

1. COc1ccc2sc(C(=O)Nc3nnn[nH]3)c(OC(C)C)c2c1 = 5.82
2. Nc1ccc(S(=O)(=O)c2ccc(N)cc2)cc1 = 5.83
3. CCC(=O)C(CC(C)N(C)C)(c1ccccc1)c1ccccc1 (stereo unspecified) [Methadone Hydrochloride] = 5.7
4. CCCCC(CC)COC(=O)CCCCCCCC(=O)OCC(CC)CCCC (stereo unspecified) = 5.23
5. CCOC(=O)C(Cl)Cc1cc(-n2nc(C)n(C(F)F)c2=O)c(F)cc1Cl (stereo unspecified) = 5.93
6. O=C(O)c1nc(Cl)ccc1Cl = 5.93
7. NC(=O)N(O)[C@@H]1C=C[C@H](Oc2cccc(Oc3ccc(F)cc3)c2)C1 = 5.89
8. CCCCCCCCCCCCCCCC = 5.86
9. O=C(O)C(Cl)(Cl)Cl = 5.89
10. CNC(=O)ON=C(C)SC = 5.19
11. CCCCCCOC(=O)CC(CC(=O)OCCCCCC)(OC(=O)CCC)C(=O)OCCCCCC [N-Butyryl tri-N-hexyl citrate] = 6.15
12. OCCO = 5.72
13. CCN1CCC2(CC1)COc1cc3c(cc12)N(C(=O)c1ccc(-c2ccc(-c4nnc(C)o4)cc2C)cc1)CC3 = 5.56
14. CCCCOC(=O)c1ccc(O)cc1 = 5.96
15. CO/C=C(/C(=O)OC)c1ccccc1Oc1cc(Oc2ccccc2C#N)ncn1 = 5.8
16. Brc1ccc(Oc2ccccc2)cc1 = 4.74
17. COc1c(Cl)ccc(Cl)c1C(=O)O = 6.18
18. OC[C@H]1O[C@@H]2O[C@H]3[C@H](O)[C@@H](O)[C@@H](O[C@H]4[C@H](O)[C@@H](O)[C@@H](O[C@H]5[C@H](O)[C@@H](O)[C@@H](O[C@H]6[C@H](O)[C@@H](O)[C@@H](O[C@H]7[C@H](O)[C@@H](O)[C@@H](O[C@H]1[C@H](O)[C@H]2O)O[C@@H]7CO)O[C@@H]6CO)O[C@@H]5CO)O[C@@H]4CO)O[C@@H]3CO = 5.88
19. NCCO = 5.75
20. COc1cc(OC)nc(NC(=O)NS(=O)(=O)c2ncccc2OCC(F)(F)F)n1 [Trifloxysulfuron-sodium] = 5.9
21. Cc1nn(-c2cc(NS(C)(=O)=O)c(Cl)cc2Cl)c(=O)n1C(F)F = 6.05
22. Cc1c(F)c(F)c(COC(=O)[C@@H]2[C@H](/C=C(\Cl)C(F)(F)F)C2(C)C)c(F)c1F (racemic) = 5.39
23. Cn1cnc([N+](=O)[O-])c1Sc1ncnc2[nH]cnc12 = 5.89
24. ClC1=C(Cl)[C@]2(Cl)[C@@H]3[C@@H]4C[C@@H]([C@H]5O[C@@H]45)[C@@H]3[C@@]1(Cl)C2(Cl)Cl = 5.12
25. CCCCCCCCCCCC(=O)OC [Methyl laurate] = 5.74
26. COC(=O)N(OC)c1ccccc1COc1ccn(-c2ccc(Cl)cc2)n1 = 5.21
27. Cc1cc(Cl)ccc1OCC(=O)O = 6.09
28. Clc1ccc(C(c2ccc(Cl)cc2)C(Cl)Cl)cc1 = 3.68
29. N#CC(CCc1ccc(Cl)cc1)(Cn1cncn1)c1ccccc1 (stereo unspecified) = 5.13
30. CC(C)(C)c1ccccc1O = 5.81
31. CCCCCCCCCCCCO = 3.72
32. C=C(C)C(=O)[O][Sn]([CH2]CCC)([CH2]CCC)[CH2]CCC = 3.8
33. CCCCCCCCOC(=O)c1ccc(C(=O)OCCCCCCCC)c(C(=O)OCCCCCCCC)c1 [Tri (n-octyl) Trimellitate] = 5.91
34. OC(c1ccc(Cl)cc1)(c1cncnc1)c1ccccc1Cl (stereo unspecified) = 5.21
35. CCCC(CCC)C(=O)O = 6.06
36. CC/C(=N\OC/C=C/Cl)C1=C(O)CC(C2CCOCC2)CC1=O (stereo unspecified) = 5.77

* * *

A collection of compounds and their measured mean nematode size ln(EXT) (ln)
Tested on: Caenorhabditis elegans N2
Test Summary: mean nematode size ln(EXT) after 48 h, plate-adjusted (DMSO control set to 6) (ln(EXT), control-adjusted); higher = larger nematodes / less growth inhibition
Test Parameters: 200 µM; exposure time 48 h
Metric Name: mean nematode size ln(EXT) (ln)

1. CC1(C)C(C=C(Cl)Cl)C1C(=O)OCc1cccc(Oc2ccccc2)c1 (stereo not given) = 5.24
2. COc1ccc(OC(F)(F)F)cc1CN[C@H]1CCCN[C@H]1c1ccccc1 = 4.55
3. Cc1oc(-c2ccccc2)nc1CCOc1ccc(C[C@H](Nc2ccccc2C(=O)c2ccccc2)C(=O)O)cc1 = 4.48
4. CCCCCCCCCCC = 5.57
5. CCCCCCCCCCCO = 4.93

* * *

System: Caenorhabditis elegans N2
Test Summary: AC50 for larval growth inhibition (Hill fit); higher = less potent
Test Parameters: exposure time 48 h
Parameter AC50 for larval growth inhibition: see the listing below.
Metric Name: AC50 for larval growth inhibition

1. CNc1cnn(-c2cccc(C(F)(F)F)c2)c(=O)c1Cl [Norflurazon] = 104 µM
2. CC(C)=CCCC(C)CCO (stereo not given) [Citronellol] = > 200 µM
3. Cc1ccc(N)cc1N [2,4-Diaminotoluene] = > 200 µM
4. Cn1sc(Cl)cc1=O [5-Chloro-2-methyl-3(2H)-isothiazolone] = > 200 µM
5. O=C(O)C(F)(F)C(F)(F)C(F)(F)C(F)(F)C(F)(F)C(F)(F)C(F)(F)C(F)(F)F [Perfluorononanoic acid] = 39 µM
6. c1cc2c3c(cccc3c1)CC2 [Acenaphthene] = > 200 µM
7. CCOc1cccc(C2(N3CCN(c4ccccc4)CC3)CCC(C)CC2)c1 (stereo not given) = > 200 µM
8. CC1=C2C[C@H]3[C@@H](CC=C4C[C@@H](O)CC[C@@]43C)[C@@H]2CC[C@]12O[C@@H]1C[C@H](C)CN[C@H]1[C@H]2C [Cyclopamine] = > 200 µM
9. CCCCCCCCCCCCN1CCCC1=O [N-Lauryl-2-pyrrolidone] = 16.1 µM
10. CN(C)NC(=O)CCC(=O)O [Daminozide] = > 200 µM

* * *

Reported mean nematode size ln(EXT) (ln) by item:
System: Caenorhabditis elegans N2
Test Summary: mean nematode size ln(EXT) after 48 h, plate-adjusted (DMSO control set to 6) (ln(EXT), control-adjusted); higher = larger nematodes / less growth inhibition
Test Parameters: 200 µM; exposure time 48 h
Structures can show the parent of a compound that is named as a salt.
Metric Name: mean nematode size ln(EXT) (ln)

1) CC(C)[C@H](C(=O)O[C@H](C#N)c1cccc(Oc2ccccc2)c1)c1ccc(Cl)cc1 [Esfenvalerate] = 5.64
2) O=c1[nH]c2ccc([S+]([O-])CCN3CCC(Cc4ccc(F)cc4)CC3)cc2o1 (centres undefined) = 5.31
3) CN(C)c1ccc(C(=O)c2ccc(N(C)C)cc2)cc1 = 5.58
4) C=C(C)C(N)=O [Methacrylamide] = 5.86
5) COP(=O)(OC)OC(Br)C(Cl)(Cl)Br (centres undefined) = 3.88
6) Cc1ccc(Cl)cc1 = 5.37
7) Cc1c(-c2cccnc2)c2ccccc2n1CCCCC(=O)O [5-[2-methyl-3-(pyridin-3-yl)-1H-indol-1-yl]pentanoic acid] = 5.7
8) S=C([S-])NCCNC(=S)[S-].[Mn+2] = 5.52
9) CC(C)(C)c1cc(/C=C2\SC(=N)NC2=O)cc(C(C)(C)C)c1O [Darbufelone mesylate] = 3.87

* * *

Tested on: Caenorhabditis elegans N2
Test Summary: AC50 for larval growth inhibition (Hill fit); higher = less potent
Test Parameters: exposure time 48 h
# Lookup of reported AC50 for larval growth inhibition keyed by entry
Metric Name: AC50 for larval growth inhibition

1) CCCCNC(=O)n1c(NC(=O)OC)nc2ccccc21 [Benomyl] = > 200 µM
2) FC(F)C(F)(F)OCC(Cn1cncn1)c1ccc(Cl)cc1Cl (stereo not given) [Tetraconazole] = 48.5 µM
3) Cc1cc2c3c(c1)C(c1ccccc1)=N[C@@H](NC(=O)c1ccncc1)C(=O)N3CC2 = > 200 µM
4) CCOC(=O)C(Cl)Cc1cc(-n2nc(C)n(C(F)F)c2=O)c(F)cc1Cl (stereo not given) [Carfentrazone-ethyl] = > 200 µM
5) O=c1c(-c2ccc(O)cc2)coc2cc(O)cc(O)c12 [Genistein] = > 200 µM

* * *

Tested on: Caenorhabditis elegans N2
Test Summary: mean nematode size ln(EXT) after 48 h, plate-adjusted (DMSO control set to 6) (ln(EXT), control-adjusted); higher = larger nematodes / less growth inhibition
Test Parameters: 10 µM; exposure time 48 h
Recorded measurements of mean nematode size ln(EXT) (ln), one per entry
Metric Name: mean nematode size ln(EXT) (ln)

1. COc1ccc(C(c2ccc(OC)cc2)C(Cl)(Cl)Cl)cc1 = 5.19
2. CCc1nc(N)nc(N)c1-c1ccc(Cl)cc1 = 5.67
3. O=c1n(Cl)c(=O)n(Cl)c(=O)n1Cl = 5.82
4. Cc1[nH]c(=O)n(C(C)(C)C)c(=O)c1Cl = 5.76
5. CCCCOC(=O)C(C)Oc1ccc(Oc2ccc(C(F)(F)F)cn2)cc1 (stereo not given) = 6.18
6. CCCCCCCCCCCCCO = 5.34
7. COC(=O)[C@H]1[C@H]2C[C@@H]3c4[nH]c5cc(OC)ccc5c4CCN3C[C@H]2C[C@@H](OC(=O)c2cc(OC)c(OC)c(OC)c2)[C@@H]1OC = 5.66
8. COc1cc(OC)nc(Sc2cccc(Cl)c2C(=O)O)n1 [Pyrithiobac-sodium] = 6.18
9. CCC(C)(NC(=O)c1cc(Cl)c(C)c(Cl)c1)C(=O)CCl (stereo not given) [Zoxamide] = 5.64
10. OC[C@@H](O)[C@@H](O)[C@H](O)[C@H](O)CO = 5.96
11. CC(C)c1cccc(C(C)C)c1 = 6.07
12. CC1(C)C(=O)N(Br)C(=O)N1Br = 5.86
13. CC(O)CN(CCN(CC(C)O)CC(C)O)CC(C)O (stereo not given) [N,N,N',N'-Tetrakis(2-Hydroxypropyl)ethylenediamine] = 5.67
14. CC(C)(C)C(O)(CCc1ccc(Cl)cc1)Cn1cncn1 (stereo not given) = 5.81
15. Nc1c(Cl)c(Cl)nc(C(=O)O)c1Cl = 6.14
16. NCC1(Cc2noc(=O)[nH]2)CCCCC1 = 5.73
17. C/C=C\c1ccc(O)c(OC)c1 = 6.01
18. CSc1nc(NC(C)C)nc(NC(C)C)n1 = 6
19. Cc1cc(O)ccc1Cl = 5.82
20. O=P(OCCCl)(OCCCl)OCCCl [Tris(2-chloroethyl) phosphate] = 5.86
